# ASSAYED TARGET: NS5B Δ21 1b BK (Hepatitis C virus (isolate BK))
# Sequence (P26663 2420-2989, stated change not applied): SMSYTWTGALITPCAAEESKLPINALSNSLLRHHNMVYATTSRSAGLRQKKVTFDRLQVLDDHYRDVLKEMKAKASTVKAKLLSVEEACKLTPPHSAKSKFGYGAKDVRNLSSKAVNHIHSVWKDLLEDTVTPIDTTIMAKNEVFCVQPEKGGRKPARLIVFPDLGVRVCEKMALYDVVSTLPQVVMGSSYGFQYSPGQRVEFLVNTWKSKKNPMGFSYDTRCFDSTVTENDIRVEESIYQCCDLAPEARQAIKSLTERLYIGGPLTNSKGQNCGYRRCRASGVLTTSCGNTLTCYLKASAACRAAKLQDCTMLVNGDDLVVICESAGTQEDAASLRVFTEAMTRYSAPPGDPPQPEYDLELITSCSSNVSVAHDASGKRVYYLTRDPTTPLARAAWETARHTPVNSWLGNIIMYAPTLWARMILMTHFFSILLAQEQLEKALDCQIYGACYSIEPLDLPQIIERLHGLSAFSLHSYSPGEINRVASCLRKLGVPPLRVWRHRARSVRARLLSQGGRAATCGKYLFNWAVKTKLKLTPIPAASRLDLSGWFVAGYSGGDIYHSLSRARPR
# METHOD NOTES: SPR (Biacore), kinetic two-state model, immobilized enzyme
METRIC: Kd (nM)
Record the value in nM, omitting the unit from your answer.

Given the compound `CC(C)(C)C#Cc1cc(N(C(=O)[C@H]2CC[C@H](C)CC2)[C@H]2CC[C@H](O)CC2)c(C(=O)O)s1` and test system NS5B Δ21 1b BK (Hepatitis C virus (isolate BK)), the measured Kd is 20

Origin of the recorded values: paper PMC5490826
